Reference source for all entries: ChEMBL document CHEMBL4715697

Tested on: U-251
protocol: Growth inhibition of human U-251 cells assessed as cell growth at 10 uM incubated for 48 hrs by sulforhodamine B assay relative to control
Type: functional
test_parameters: read-out: Activity
I'd be grateful if you could share measured growth at 10 µM for these entries.
Provide the reading as a plain figure in %.

[Q] Request the reported growth at 10 µM associated with CC(=O)Nc1cc(CO)cc(NC(=O)c2ccc(C(=O)Nc3cc(CO)cc(NC(C)=O)c3)cc2)c1
[A] 112

[Q] Request the reported growth at 10 µM associated with CC(=O)Nc1cc(CO)cc(NC(=O)c2ccccc2)c1
[A] 99.4

[Q] Request the reported growth at 10 µM associated with CC(=O)Nc1ccc(C(=O)Nc2cc(CO)cc(NC(C)=O)c2)cc1
[A] 110

[Q] Request the reported growth at 10 µM associated with CC(=O)Nc1cc(CO)cc(NC(=O)c2ccc(C(=O)Nc3cccc(NC(=O)CCCN(C)C)c3)cc2)c1
[A] 69.9

[Q] Request the reported growth at 10 µM associated with CC(=O)Nc1cc(CO)cc(NC(=O)c2ccc(NC(=O)CCCN3CCOCC3)cc2)c1
[A] 105

[Q] Request the reported growth at 10 µM associated with CC(=O)Nc1cc(CO[Si](C)(C)C(C)(C)C)cc(NC(=O)c2ccc(C(=O)Nc3cccc(NC(=O)CCCN(C)C)c3)cc2)c1
[A] 87
